src = patent US11814396B2

Biological target: POLE3-GFP (Homo sapiens)
Sequence (Q9NRF9 1-147): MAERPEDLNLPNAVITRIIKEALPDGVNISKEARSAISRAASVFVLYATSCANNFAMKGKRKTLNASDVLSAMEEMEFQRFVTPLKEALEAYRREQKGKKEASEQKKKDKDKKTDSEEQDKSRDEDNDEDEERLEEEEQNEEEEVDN
Experiment: Gel-based determination of kinetic parameters Ki and kinact (Kitz and Wilson method)
Settings: lysate of 293T cells overexpressing WT POLE3-GFP, 37° C., competition with 30 μM Example 4; read-out: POLE3-GFP binding constant Ki
EXPERIMENTAL READOUT: pKi
Recall that pKi is obtained by taking minus log10 of the concentration measured in molar.

Which measured pKi belongs to C=C1C[C@@]2(C[C@H](C)[C@H]3CC=C(C)C(=O)[C@@H]3O2)OC1=O [Example 2] , tested on POLE3-GFP (Homo sapiens)?
4.24
